Data credit: patent US20230002503A1

# Tested System: human CAIX antigen (purchased from AcroBiosystems) (human, UniProt Q16790 38-414)
# Assay Protocol: BLI (ForteBio), method of Example 3
I'd appreciate it if you could supply kon values for the items below.
One number for each entry, in M⁻¹ s⁻¹.

Known kon results, listed for orientation:
[
  {
    "Binder": "Hu-H-YE-05-D3 (Fc fusion, also called humanized recombinant antibody from H-YE-05; not shown: human IgG1 Fc segment) EVQLLESGGGLVQPGGSLRLSCAASGNSVNIFSFAAMSWYRQAPGKGLELVAVITTTGGTKYSDSVKGRFTISRDNSKNTLYLQMNSLRAEDTAVYYCNADYLQDYWGQGTQVTVSS",
    "Uom": "M⁻¹ s⁻¹",
    "kon": 179000
  },
  {
    "Binder": "Hu-H-YE-23-D2 (Fc fusion, T0013 prints the label as Hu-H-YB-23-D2; also called Hu-H-YB-23-D2; humanized recombinant antibody from H-YE-23; not shown: human IgG1 Fc segment) QVQLVESGGGLVQPGGSLRLSCSASGNSANIFSFASVAWYRQAPGKGLELVSVITSAGGTKYSDSVKGRFTISRDNSKNTLYLQMNSLRAEDTAVYYCNVDYLQDYWGQGTLVTVSS",
    "Uom": "M⁻¹ s⁻¹",
    "kon": 158000
  },
  {
    "Binder": "Hu-H-YE-32-D5 (Fc fusion, T0013 prints the label as Hu-H-YB-32-D5; also called Hu-H-YB-32-D5; humanized antibody from H-YE-32; not shown: human IgG1 Fc segment) QVQLVESGGGLVQPGGSLRLSCSASGGARNIFSFAAMHWYRQAPGKGLELVAVITSAGGTYYADSVKGRFTISRDNSKKTLYLQMNSLRAEDTAVYYCNADYYQDYWGQGTQVTVSS",
    "Uom": "M⁻¹ s⁻¹",
    "kon": 216000
  },
  {
    "Binder": "Hu-H-YE-05-D4 (Fc fusion, also called humanized recombinant antibody from H-YE-05; not shown: human IgG1 Fc segment) EVQLLESGGGLVQPGGSRRLSCAASGNSVNIFSFAAVAWYRQAPGKQRELVAVITTTGGTKYSDSVKGRFTISRDSSKNTVYLQMNSLRAEDTAVYYCNADYLQDYWGQGTQVTVSS",
    "Uom": "M⁻¹ s⁻¹",
    "kon": 181000
  }
]

Below are 2 binders. Give each one its kon.
1. Hu-H-YE-32-D6 (Fc fusion, also called humanized antibody from H-YE-32; not shown: human IgG1 Fc segment) QVQLVESGGGLVQPGGSLRLSCSASGGARNIFSFAAMAWYRQAPGKGLELVAVITSAGGTQYSSSVKGRFTISRDNSKKTLYLQMNSLRAEDTAVYYCNADYYQDYWGQGTQVTVSS
2. H-YE-23 (Fc fusion, also called CAIX nanobody H-YE-23; WYE-23; not shown: human IgG1 Fc segment) QVQLQESGGGLVQPGGSLRLSCAASGNSANIFSFASVAWYRQAPGKQRELVAVITSAGGTKYSDSVKGRFTISRDNAKNTILLQMNSLKPEDTAVYYCNVDYLQDYWGQGTQVTVSS

260000
136000

Below are 2 binders. Give each one its kon.
1. H-YE-05 (Fc fusion, also called CAIX nanobody H-YE-05; not shown: human IgG1 Fc segment) QVQLQESGGGLVQPGGSRRLSCAASGNSVNIFSFAAVAWYRQAPGKQRELVAVITTTGGTKYSDSVKGRFTISRDSAKNTVLLQMNSLKPEDTAVYYCNADYLQDYWGQGTQVTVSS
2. H-YE-32 (Fc fusion, also called CAIX nanobody H-YE-32; not shown: human IgG1 Fc segment) QVQLQESGGGLVQPGGSLRLSCAASGGARNIFSFAAMAWYRQAPGKQRELVAVITSAGGTQYSSSVKGRFTISRDNAKKTVLLQMNSLKPEDTAVYYCNADYYQDYWGQGTQVTVSS

1. 155000
2. 271000
